System: HBV
experiment.notes: Efficacy of HBV RNAi agents in HepG2.2.15 cells in vitro (sAg KD)
Assay type: cell-based, Hepatitis B Virus
assay.conditions: Experiment 2; percent residual gene activity; HepG2.2.15 cells
Percent sAg remaining at maximum knockdown values for the substances below.
recorded.metric: Percent sAg remaining at maximum knockdown (%)

1) 10: "HBV RNAi agents numbered 1 to 10"; "The RNAi agents used are listed in Table 8E" (18-mer format) (sense GAGAUUAGGUUAAAGGUCU; antisense AGACCUUUAACCUAAUCUC; chemistry not given here) [Number 10] = 49.1
2) 9: "HBV RNAi agents numbered 1 to 10"; "The RNAi agents used are listed in Table 8E" (18-mer format) (sense GGAGGCUGUAGGCAUAAAU; antisense AUUUAUGCCUACAGCCUCC; chemistry not given here) [Number 9] = 50
3) 11: "An 18-mer ... with the sequences of Number 11E in Table 10"; "an additional HBV RNAi agent, HBV 279" (sense GGUUCUUCUGGAUUAUCAA; antisense UUGAUAAUCCAGAAGAACC; chemistry not given here) = 46
4) 8: "HBV RNAi agents numbered 1 to 10"; "The RNAi agents used are listed in Table 8E" (18-mer format) (sense CAGCAAUGUCAACGACCGA; antisense UCGGUCGUUGACAUUGCUG; chemistry not given here) [Number 8] = 42.2

====

Test system: HBV
experiment.notes: Efficacy of HBV RNAi agents in HepG2.2.15 cells in vitro (sAg KD)
Format: cell-based, Hepatitis B Virus
assay.conditions: average of Experiments 1 and 2; read-out: EC50 (nM), AVERAGE
As shown below, each of these substances has a reported EC50 value.
recorded.metric: EC50 (nM)

1) 7: "HBV RNAi agents numbered 1 to 10"; "The RNAi agents used are listed in Table 8E" (18-mer format) (sense GCUGUAGGCAUAAAUUGGU; antisense ACCAAUUUAUGCCUACAGC; chemistry not given here) [Number 7] = 0.22
2) 8: "HBV RNAi agents numbered 1 to 10"; "The RNAi agents used are listed in Table 8E" (18-mer format) (sense CAGCAAUGUCAACGACCGA; antisense UCGGUCGUUGACAUUGCUG; chemistry not given here) [Number 8] = 0.1
3) 5: "One sequence used was designated siHBV_1599_18mer_CAM, and corresponds to Number 5 in Table 8E" (sense CCGUGUGCACUUCGCUUCA; antisense UGAAGCGAAGUGCACACGG; chemistry not given here) = 0.07
4) 11: "An 18-mer ... with the sequences of Number 11E in Table 10"; "an additional HBV RNAi agent, HBV 279" (sense GGUUCUUCUGGAUUAUCAA; antisense UUGAUAAUCCAGAAGAACC; chemistry not given here) = 0.07

====

Max % KD, AVERAGE overview
System: HBV
experiment.notes: Efficacy of HBV RNAi agents in HepG2.2.15 cells in vitro (sAg KD)
Type: cell-based, Hepatitis B Virus
assay.conditions: average of Experiments 1 and 2
recorded.metric: Max % KD, AVERAGE (%)

1) 7: "HBV RNAi agents numbered 1 to 10"; "The RNAi agents used are listed in Table 8E" (18-mer format) (sense GCUGUAGGCAUAAAUUGGU; antisense ACCAAUUUAUGCCUACAGC; chemistry not given here) [Number 7] = 40.9
2) 9: "HBV RNAi agents numbered 1 to 10"; "The RNAi agents used are listed in Table 8E" (18-mer format) (sense GGAGGCUGUAGGCAUAAAU; antisense AUUUAUGCCUACAGCCUCC; chemistry not given here) [Number 9] = 49.4
3) 5: "One sequence used was designated siHBV_1599_18mer_CAM, and corresponds to Number 5 in Table 8E" (sense CCGUGUGCACUUCGCUUCA; antisense UGAAGCGAAGUGCACACGG; chemistry not given here) = 39.55

Reference for the values: patent US10519446B2
